system: CEM cells HIV-1 protection, formazan growth assay; assay: NCI AIDS Antiviral Assay;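 active = compounds giving half or more protection of infected cells from virus-caused growth loss, again on retest; inactive = the rest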
Bench note: report the call from active, inactive

Solved entries:
Status in this test for COc1c(O)c(O)cc2c1-c1ccc(OC)c(=O)cc1C(NC(C)=O)CC2 (stereo unspecified) ?
inactive

Status in this test for CC1=NN(C(=O)CC(=O)NC(=O)CC(=O)Nc2ccccc2F)C(=O)C1N=Nc1ccc([N+](=O)[O-])cc1 (stereo unspecified) ?
inactive

Status in this test for O=[N+]([O-])C(C=Nc1ccccc1)C=Nc1ccccc1 (stereo unspecified) ?
inactive

Status in this test for `CC1(C)OC(=O)C(=Cc2cccc(Cl)c2)C(=O)O1` ?
inactive

Others:
Status in this test for COC(=O)C(Cc1ccc2c(c1)OCO2)(NC(=O)c1ccccc1)P(=O)(OC)OC (stereo unspecified) ?
inactive

Status in this test for `FC(F)(F)c1cccc(C=NC23CC4CC(CC(C4)C2)C3)c1` ?
inactive

Status in this test for `Cc1ccc(SCc2nc3ccccc3c(C)[n+]2[O-])cc1` ?
active

Status in this test for `CC(=O)Nc1ccc(OC(C)(C)C)cc1` ?
inactive

Status in this test for `CC(C)C(/C=C/c1ccccc1)=N\NC(=O)N/N=C(/C=C/c1ccccc1)C(C)C` ?
inactive

Status in this test for `Oc1ccc(-c2nc(-c3ccccc3)c(-c3ccccc3)[nH]2)cc1` ?
inactive

Status in this test for CC(=O)OCC12CC(OC(C)=O)C(C)=CC1O[C@@H]1C(O)[C@@H](O)[C@@]2(C)[C@@]12CO2 (stereo partly specified) ?
inactive

###

tested on: CEM cells HIV-1 protection, formazan growth assay; assay: NCI AIDS Antiviral Assay; conditions: measured here: growth of uninfected CEM cells
RECORDED_ENDPOINT: IC50 (µM)
Reply numerically in µM, unit not repeated.

Worked cases, answers included:
Query `O=C(Nn1cc(F)c(=O)[nH]c1=O)C12CC3CC(CC(C3)C1)C2` yields IC50 of 8.91

Query `COc1ccc(OC)c(/C=C/c2ccccc2)c1` yields IC50 of 110

Query `O=[N+]([O-])c1ccc(OCc2nc3ccccc3[nH]2)cc1` yields IC50 of 87.1

# input for lookup
Query `CCCCCCCCC[C@@H]1C[C@H](O)[C@H](Cc2ccccc2)N1C(=O)OC(C)(C)C` yields IC50 of 35.5

###

test system: CEM cells HIV-1 protection, formazan growth assay; assay: NCI AIDS Antiviral Assay;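 active = compounds giving half or more protection of infected cells from virus-caused growth loss, again on retest; inactive = the rest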
Bench note: report the call from T = active, F = inactive

Solved entries:
Status in this test for CN(C)/N=N/c1nc2c(c(=O)n(C)c(=O)n2C)n1CC1CO1 (stereo not drawn) ?
F

Status in this test for `C=CCn1c(C23CC4CC(CC(C4)C2)C3)n[nH]c1=S` ?
T

Status in this test for Cc1ccc(C)n1-c1ccccc1C1C=Cn2c(=O)nnc3c(OC(C)C)c(OC(C)C)c(O)c1c32 (stereo not drawn) ?
F

Status in this test for Clc1ccccc1C1SCc2nc3ncccc3n21 (stereo not drawn) ?
F

Status in this test for CN1CC(c2ccccc2)N(CCCCN2CC(c3ccccc3)N(C)CC2c2ccccc2)CC1c1ccccc1 (stereo not drawn) ?
F

Others:
Status in this test for `CCOP(=O)(OCC)/C(C#N)=C/c1cccn1CC(C)C` ?
T

Status in this test for `CN1CC2(c3ccccc3)CN(C)CC(c3ccccc3)(C1)C2=O` ?
F

Status in this test for `O=C1C=C(Nc2cc(Cl)ccc2Cl)c2ccccc2C1=O` ?
F

###

system: CEM cells HIV-1 protection, formazan growth assay; test: NCI AIDS Antiviral Assay; details: measured here: growth of uninfected CEM cells
RECORDED_ENDPOINT: IC50

Worked cases, answers included:
Query CCc1cccc2c3c([nH]c12)C(CC)(CC(=O)O)OCC3 (stereo not drawn) yields IC50 of > 200 µM

Query O=c1[nH]c(=O)n(C2CC(O)C(CO)O2)cc1Oc1ccccc1 (stereo not drawn) yields IC50 of > 200 µM

Others:
Query CC(C)OP(=O)(OC(C)C)C(C(C)C)N(C)/C(F)=N/C(F)(F)F (stereo not drawn) yields IC50 of > 200 µM

Query O=S(=O)(O)c1cccc2c1CN1CCCCC1C2 (stereo not drawn) yields IC50 of > 200 µM

Query `Cc1nc2c(sc(=S)n2-c2ccccc2)c2nc3ccccc3n12` yields IC50 of > 2.09 µM

Query CC1(C(=O)O)CC(C(=O)O)=Nn2c3ccccc3c3cccc1c32 (stereo not drawn) yields IC50 of > 324 µM

Query O=C(CC(c1ccc2c(c1)OCO2)N1CCN(C(CC(=O)c2ccc(Br)cc2)c2ccc3c(c2)OCO3)CC1)c1ccc(Br)cc1 (stereo not drawn) yields IC50 of > 200 µM

Query `COc1cc(-c2oc3c(OC)cc(OC)c(O)c3c(=O)c2OC)cc(OC)c1OC` yields IC50 of > 200 µM

Query `CCCCCCCC(=O)O[C@H]1[C@H]2[C@@H](CC1(C)C)C(=O)[C@]13O[C@H]1C(=O)[C@]1(CO1)[C@]23C` yields IC50 of 0.55 µM

Query `O=c1cn[nH]c2ccc(Br)cc12` yields IC50 of > 95.5 µM

Query `Cn1cc(NC(=O)Nc2cc(C(=O)Nc3cc(C(=O)Nc4ccc(P(=O)(O)O)c5cc(P(=O)(O)O)ccc45)n(C)c3)n(C)c2)cc1C(=O)Nc1cc(C(=O)Nc2ccc(P(=O)(O)O)c3cc(P(=O)(O)O)ccc23)n(C)c1` yields IC50 of 31.6 µM

Query CCOC(=O)C(NC(=O)CC)(Nc1ccc(S(=O)(=O)Nc2ncccn2)cc1)C(F)(F)F (stereo not drawn) yields IC50 of > 200 µM

Query CC12CCC(O)CC1=CCC1C2CCC2(C)C3=NN=CC3CC12 (stereo not drawn) yields IC50 of 12 µM

###

system: CEM cells HIV-1 protection, formazan growth assay; experiment: NCI AIDS Antiviral Assay
pEC50: −log10 of the molar value.
RECORDED_ENDPOINT: pEC50

Worked cases, answers included:
Query `CC1=C(C(=O)Nc2cccc(Cl)c2)C(c2ccccc2O)C(C(=O)Nc2cccc(Cl)c2)=C(C)N1` yields pEC50 of < 4.30

Query `Cc1n[n+](Cc2ccccc2)c2sc(N)nn12` yields pEC50 of < 3.70

Query CC1OC(OC2C(O[C@@H]3C[C@@H]4CC[C@@H]5[C@H](CC[C@]6(C)[C@@H]7[C@H](C[C@@H]56)O[C@]5(CC[C@@H](C)CO5)[C@H]7C)[C@@]4(C)C[C@H]3O)OC(CO)C(OC3OC(CO)C(O)C(O)C3O)C2O)C(O)C(O)C1O (stereo not given in full) yields pEC50 of < 5.00

Others:
Query `NC(N)=NS(=O)(=O)c1ccc(NC(=O)c2cccc3c(NNc4ccc(C(=O)O)cc4)c4ccccc4nc23)cc1` yields pEC50 of < 3.70

Query `N#Cc1ncn(CCO)c1N` yields pEC50 of < 3.70

Query `COC(=O)Nc1cn2c(n1)SCC2` yields pEC50 of < 3.70

Query `CCOC(=O)/C(C#N)=C/c1ccc(C)cc1` yields pEC50 of < 3.92

Query `CC1=C(C)C(=O)C(C2=CC(=O)C=CC2=O)=C(C2=CC(=O)C=CC2=O)C1=O` yields pEC50 of < 3.70

Query Nc1nc(Cl)cc(NCC2(CO)CC(OCc3ccccc3)C2)n1 (stereo not given) yields pEC50 of < 3.70

Query COC(=O)CNC(=O)Nc1cc(N2C(=O)ON3C2C(C)(C)N(O)C3(C)C)ccc1C (stereo not given) yields pEC50 of < 3.70

###

system: CEM cells HIV-1 protection, formazan growth assay; assay: NCI AIDS Antiviral Assay
RECORDED_ENDPOINT: EC50

Query COc1cc(CCCC(O)COc2cccc3c2C2(O)CCCCCC32)cc(OC)c1 (stereo unspecified) yields EC50 of > 200 µM

Query `C/C(=N\NC(N)=O)c1sc(-c2nc(C)c(/C(C)=N/NC(N)=O)s2)nc1C` yields EC50 of > 9.55 µM

Query CC(C)(C)C1CNP(=O)(c2ccccc2)OC1 (stereo unspecified) yields EC50 of > 70.8 µM

Query `CN1CCN(c2c(Cl)cc(Cl)c3[nH]c4ccccc4c(=O)c23)CC1` yields EC50 of > 2 µM

Query COc1ccc(NC(=O)/C(CC2=Nc3ccc([N+](=O)[O-])cc3NC2O)=N\NC(=O)C[N+](C)(C)C)c(OC)c1 (stereo unspecified) yields EC50 of > 45.7 µM

Query `O=C(O)/C=C\C(=O)Nn1c(Cc2ccc(Cl)cc2)n[nH]c1=O` yields EC50 of > 200 µM

Query `COc1cc(NS(=O)(=O)c2ccc(N)cc2)nc(OC)n1` yields EC50 of > 200 µM

Query O=P1(CCc2ccc(Cl)cc2)CC(Br)C(Br)C1 (stereo unspecified) yields EC50 of > 631 µM

Query `Cn1cnc([N+](=O)[O-])c1SSc1c([N+](=O)[O-])ncn1C` yields EC50 of > 200 µM

Query `O=C1Nc2cc([N+](=O)[O-])ccc2C(=O)N2CCC[C@@H]12` yields EC50 of > 200 µM
